- target_of_assay: T1, human IL-22 receptor complex IL22R1 and IL10R2, overexpressed on HEK 293 cells (human) (UniProt Q8N6P7)
- T1 sequence (looked up) 1: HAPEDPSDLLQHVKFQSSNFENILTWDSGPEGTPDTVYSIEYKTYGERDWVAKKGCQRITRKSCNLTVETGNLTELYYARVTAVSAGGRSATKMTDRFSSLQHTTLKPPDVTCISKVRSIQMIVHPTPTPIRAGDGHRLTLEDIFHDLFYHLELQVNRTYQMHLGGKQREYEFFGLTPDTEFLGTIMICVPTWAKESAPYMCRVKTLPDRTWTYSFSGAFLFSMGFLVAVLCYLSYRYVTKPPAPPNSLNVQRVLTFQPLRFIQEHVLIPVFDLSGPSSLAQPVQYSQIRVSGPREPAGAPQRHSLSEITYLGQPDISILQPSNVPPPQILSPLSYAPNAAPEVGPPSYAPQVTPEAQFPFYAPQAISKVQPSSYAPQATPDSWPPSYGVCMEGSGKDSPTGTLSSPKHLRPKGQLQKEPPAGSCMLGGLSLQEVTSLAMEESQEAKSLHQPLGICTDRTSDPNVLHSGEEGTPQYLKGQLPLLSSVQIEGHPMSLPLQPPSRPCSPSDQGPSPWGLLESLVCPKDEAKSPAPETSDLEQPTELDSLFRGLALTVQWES
- T1 sequence (looked up) 2: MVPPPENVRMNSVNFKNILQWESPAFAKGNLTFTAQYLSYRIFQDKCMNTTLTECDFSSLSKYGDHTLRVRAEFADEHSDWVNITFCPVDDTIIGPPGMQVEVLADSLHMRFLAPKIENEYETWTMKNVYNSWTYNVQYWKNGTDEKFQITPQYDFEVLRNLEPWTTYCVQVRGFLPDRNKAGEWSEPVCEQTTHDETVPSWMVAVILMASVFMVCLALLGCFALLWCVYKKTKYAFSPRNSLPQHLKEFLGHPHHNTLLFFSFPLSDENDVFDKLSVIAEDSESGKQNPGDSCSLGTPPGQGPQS
- method: cell-based or functional assay
measurement_kind: EC50 (pM), STAT3 luciferase reporter assay
Reply with just the number (in pM).

Consider the reported EC50 (pM), STAT3 luciferase reporter assay for these binders:
IL-22 Fc construct 13 (huIgG1, linker …, produced in CHO) (Fc fusion, not shown: a dimerising Fc or GST) APISSHCRLDKSNFQQPYITNRTFMLAKEASLADNNTDVRLIGEKLFHGVSMSERCYLMKQVLNFTLEEVLFPQSDRFQPYMQEVVPFLARLSNRLSTCHIEGDDLHIQRNVQKLKDTVKKLGESGEIKAIGELDLLFMSLRNACIKVDKKVEPKSSDKTHT : 25
IL-22 Fc construct 18 (huIgG1, linker …, N297G, produced in CHO) (Fc fusion, not shown: a dimerising Fc or GST) APISSHCRLDKSNFQQPYITNRTFMLAKEASLADNNTDVRLIGEKLFHGVSMSERCYLMKQVLNFTLEEVLFPQSDRFQPYMQEVVPFLARLSNRLSTCHIEGDDLHIQRNVQKLKDTVKKLGESGEIKAIGELDLLFMSLRNACIKKVEPKSSDKTHT : 20
IL-22 Fc construct 12 (huIgG1, linker …, produced in CHO) (Fc fusion, not shown: a dimerising Fc or GST) APISSHCRLDKSNFQQPYITNRTFMLAKEASLADNNTDVRLIGEKLFHGVSMSERCYLMKQVLNFTLEEVLFPQSDRFQPYMQEVVPFLARLSNRLSTCHIEGDDLHIQRNVQKLKDTVKKLGESGEIKAIGELDLLFMSLRNACIDKKVEPKSSDKTHT : 25

// field: EC50 (pM), STAT3 luciferase reporter assay; key: IL-22 Fc construct 24 (huIgG1, linker …, produced in E. coli) (Fc fusion, not shown: a dimerising Fc or GST) APISSHCRLDKSNFQQPYITNRTFMLAKEASLADNNTDVRLIGEKLFHGVSMSERCYLMKQVLNFTLEEVLFPQSDRFQPYMQEVVPFLARLSNRLSTCHIEGDDLHIQRNVQKLKDTVKKLGESGEIKAIGELDLLFMSLRNACIEPKSSDKTHT ; value = 16
